biological target: Luciferin 4-monooxygenase (Photinus pyralis) (UniProt P08659); test: qHTS profiling assay for firefly luciferase inhibitor/activator using purifed enzyme and Km concentrations of substrates (counterscreen for miR-21 project); details: purified FLuc, luminescence inhibition; series mostly up to 57.5 µM; note: nearly all actives have a fitted effect of over 55% in size
Sequence (P08659 whole entry, looked up): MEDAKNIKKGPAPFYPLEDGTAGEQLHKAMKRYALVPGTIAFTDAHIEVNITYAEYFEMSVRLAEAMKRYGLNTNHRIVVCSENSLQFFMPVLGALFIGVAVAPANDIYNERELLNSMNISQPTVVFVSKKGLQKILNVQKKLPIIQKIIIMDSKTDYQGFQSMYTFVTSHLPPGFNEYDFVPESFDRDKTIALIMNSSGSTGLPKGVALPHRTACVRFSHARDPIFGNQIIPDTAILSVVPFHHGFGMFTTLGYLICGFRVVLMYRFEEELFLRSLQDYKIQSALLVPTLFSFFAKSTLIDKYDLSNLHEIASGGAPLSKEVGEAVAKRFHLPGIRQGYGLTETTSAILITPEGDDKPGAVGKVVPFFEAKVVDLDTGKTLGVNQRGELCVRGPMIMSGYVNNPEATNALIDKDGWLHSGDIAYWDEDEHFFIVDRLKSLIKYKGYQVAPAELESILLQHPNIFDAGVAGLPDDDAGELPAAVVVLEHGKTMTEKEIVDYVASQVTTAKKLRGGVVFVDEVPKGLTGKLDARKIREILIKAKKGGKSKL
Among all 360,000 compounds or so, about 25,000 (6.9%) were called active. Not shown: some 9% with an inconclusive outcome. Calls come from the whole dose curve; as a rule, active = well fitted inhibition curve with a large enough effect; inconclusive = small, poorly fitted or top-dose-only effect; inactive = flat fitted curve, though single readings scatter. For the sample, actives were picked, then their nearest neighbours and some compounds at random.
Reply using exactly one outcome from active, inactive

Solved cases (5 shown):
COC(=O)C1=C(c2ccc(F)cc2OCc2ccccc2)C[C@@H]2CC[C@H]1N2C(=O)NCc1ccc2[nH]ccc2c1
inactive
Cc1ccc(-n2c(/C=C/c3cccc(C(F)(F)F)c3)nc3ccccc3c2=O)cc1
inactive
COC(=O)C1=C(c2ccc(Cl)c(C(F)(F)F)c2)C[C@@H]2CC[C@H]1N2C(=O)NC(C)C
inactive
COC(=O)C1=C(c2ccc(F)cc2OCc2ccccc2)C[C@@H]2CC[C@H]1N2C(=O)NCc1ccc(C(C)(C)C)cc1
inactive
CC(=O)Cc1ccc(OC(C)C)cc1
inactive

API: the following record is the query input.
## Task Call for entry COC(=O)C1=C(c2cccc(OCc3ccccc3)c2)C[C@@H]2CC[C@H]1N2C(=O)NCc1ccc(Br)cc1 :
## Result inactive

----------
target: Luciferin 4-monooxygenase (Photinus pyralis) (UniProt P08659); assay: qHTS profiling assay for firefly luciferase inhibitor/activator using purifed enzyme and Km concentrations of substrates (counterscreen for miR-21 project); details: purified FLuc, luminescence inhibition; series mostly up to 57.5 µM; note: nearly all actives have a fitted effect of over 55% in size
About 25,000 (6.9%) of roughly 360,000 compounds were called active. Not shown: some 9% with an inconclusive outcome. Calls come from the whole dose curve; as a rule, active = well fitted inhibition curve with a large enough effect; inconclusive = small, poorly fitted or top-dose-only effect; inactive = flat fitted curve, though single readings scatter. What follows is part of a selection rich in actives, with near analogues and random picks from the rest.
Reply using exactly one outcome from 1 for active, 0 for inactive

Solved cases (10 shown):
O=C1NC(=O)N(c2ccc(F)cc2)C(=O)/C1=C/c1ccc2c(c1)CCCN2Cc1ccccc1
0
COc1ccc(C(=O)C2CN(C)CC2C(=O)c2ccc(OC)cc2)cc1 (configuration not stated)
0
CN1CCC(OC(=O)c2cccc(F)c2)CC1
0
COc1ccc(Br)cc1CNCCc1cccc(Cl)c1
0
Cc1cc(/C=C2/C(=O)NC(=O)N(Cc3ccco3)C2=O)c(C)n1-c1ccc(C(=O)O)cc1
0
Cn1c(O)c(C=Nc2ccc3c(c2)CCC3)c(=O)n(C)c1=O
1
Cc1nc2ccccn2c1P(=S)(N1CCCCC1)N1CCCCC1
0
O=C1NC(=O)N(c2ccccc2)C(=O)/C1=C/c1ccc([N+](=O)[O-])s1
1
O=C(O)CCn1cc(C=C2C(=O)NC(=S)NC2=O)c(-c2cccc(Br)c2)n1
1
c1cc2c(cc1CCNC1CCCCCC1)OCO2
0

## Task Call for entry CCC1(C)CC(CCNCc2ccc(N(C)C)cc2)(c2ccc(F)cc2)CCO1 (configuration not stated) :
## Result 0

## Task Call for entry Cc1ccccc1N1C(=O)NC(=O)/C(=C\c2cc(C)n(C)c2C)C1=O :
## Result 0

## Task Call for entry O=[N+]([O-])c1ccc(C2C3C(c4ccccc4)=NC4(CCCCC4)N32)cc1 (configuration not stated) :
## Result 0

## Task Call for entry Cc1nn(-c2ccccc2)c(C)c1NC(=O)COC(=O)Cc1ccccc1 :
## Result 0

## Task Call for entry O=C1C2(Cl)C3(Cl)C4(Cl)C(Cl)(Cl)C5(Cl)C3(Cl)C1(Cl)C5(Cl)C24Cl (configuration not stated) :
## Result 0

## Task Call for entry O=c1c2ccccc2nc(/C=C/c2ccco2)n1-c1ccccc1O :
## Result 0

## Task Call for entry C=CCN(CC=C)C(=O)Nc1ccc(OCC)cc1 :
## Result 0

## Task Call for entry COC(=O)C1=C(c2ccc(C(C)=O)cc2)C[C@@H]2CC[C@H]1N2C(=O)NCCNC(C)=O :
## Result 0

## Task Call for entry O=C1NC(=O)N(Cc2ccco2)C(=O)/C1=C\c1ccc(-c2ccc(F)cc2)o1 :
## Result 1

## Task Call for entry Cc1cccc(Cn2cccc(C(=O)Nc3ccc4c(c3)OCCO4)c2=O)c1 :
## Result 1

## Task Call for entry O=C(O)COc1ccccc1/C=C1\C(=O)NC(=O)N(CCC2=CCCCC2)C1=O :
## Result 0

## Task Call for entry Cn1c(O)c(C=NCCN2CCNCC2)c(=O)n(C)c1=O :
## Result 0

----------
biological target: Luciferin 4-monooxygenase (Photinus pyralis); test: qHTS profiling assay for firefly luciferase inhibitor/activator using purifed enzyme and Km concentrations of substrates (counterscreen for miR-21 project); settings: purified FLuc, luminescence inhibition; series mostly up to 57.5 µM; note: nearly all actives have a fitted effect of over 55% in size
Among all 360,000 compounds or so, about 25,000 (6.9%) were called active. Roughly 9% stayed inconclusive and do not appear here. The call rests on the fitted dose curve; in most records, active means well fitted inhibition curve with a large enough effect; inconclusive means small, poorly fitted or top-dose-only effect; inactive means flat fitted curve, though single readings scatter. Shown is part of a subset that was picked to be rich in actives.
Reply using exactly one outcome from active, inactive

## Task Call for entry O=C(O)c1ccccc1NC(=O)C1C2CCC(O2)C1C(=O)O (stereo unspecified) :
## Result inactive

## Task Call for entry CCOC(=O)C1=C(C)OC(N)=C(C(=O)OC)C12C(=O)Nc1ccc(Br)cc12 (stereo unspecified) :
## Result inactive

## Task Call for entry NC(=O)Cn1cc(C(=O)c2ccccc2F)c2ccccc21 :
## Result inactive

## Task Call for entry Cc1nc2ccc(N3CCN(C)CC3)cc2nc1C :
## Result active

## Task Call for entry CCN(CC)C(=O)c1ccc(NC(=O)c2sccc2-c2ccccc2)cc1 :
## Result inactive

## Task Call for entry N#Cc1ccc(Cn2cc(C(=O)c3ccco3)c3ccccc32)cc1 :
## Result active

## Task Call for entry Cc1ccc(C(C)C)c(OCC(=O)N2CCN(CC(=O)N3CCOCC3)CC2)c1 :
## Result inactive

## Task Call for entry CN1CCN(c2cc(N3CCNCC3)ccc2[N+](=O)[O-])CC1 :
## Result inactive

## Task Call for entry CC(=O)Nc1ccc(C(=O)C(Cc2ccccc2)N(C)C)cc1 (stereo unspecified) :
## Result inactive

## Task Call for entry CC(C)CN1CCN(Cc2ccccc2C(F)(F)F)CC1CCO (stereo unspecified) :
## Result inactive

## Task Call for entry Cc1ccc(NN=C2C(=O)OC(C)(C)OC2=O)c(C)c1 :
## Result active

----------
molecular target: Luciferin 4-monooxygenase (Photinus pyralis); assay: qHTS profiling assay for firefly luciferase inhibitor/activator using purifed enzyme and Km concentrations of substrates (counterscreen for miR-21 project); conditions: purified FLuc, luminescence inhibition; series mostly up to 57.5 µM; note: nearly all actives have a fitted effect of over 55% in size
Out of some 360,000 compounds screened, about 25,000 (6.9%) were called active. Inconclusive results (about 9%) are left out. Calls come from the whole dose curve; as a rule, active = well fitted inhibition curve with a large enough effect; inconclusive = small, poorly fitted or top-dose-only effect; inactive = flat fitted curve, though single readings scatter. This excerpt belongs to a sample that is enriched for actives.
Reply using exactly one outcome from active, inactive

CC(C)c1c(CN(C)C(C)Cc2ccccc2)n(C)n(-c2ccccc2)c1=O (stereo not drawn)
inactive
COC(=O)C1=C(c2ccc(F)cc2OCc2ccccc2)C[C@@H]2CC[C@H]1N2C(=O)NCc1ccc(OC)c(OC)c1
inactive

## Task Call for entry O=C(OCC(=O)c1cccs1)C1=COCCO1 :
## Result active
